- System: SJSA-1 cells
- PROTOCOL NOTES: Cell lysis by peptidomimetic macrocycles (LDH release)
- Type: cell-based
- CONDITION CONTEXT: 25 μM, SJSA-1, 1 h
The following molecules are shown together with reported 25 μM % Lysed cells (1 h LDH) values.
PROPERTY LABEL: 25 μM % Lysed cells (1 h LDH)

1) CC[C@H](C)[C@H](NC(=O)[C@H](C)NC(=O)[C@H](C)NC(=O)[C@]1(C)CCCC=CCCCCCC[C@@](C)(NC(=O)[C@H](Cc2ccccc2)NC(=O)[C@@H](NC(=O)[C@H](CC(C)C)NC(C)=O)[C@@H](C)O)C(=O)N[C@@H](CCC(=O)O)C(=O)N[C@@H](Cc2c[nH]cn2)C(=O)N[C@@H](Cc2c[nH]c3ccccc23)C(=O)N[C@@H](C)C(=O)N[C@@H](CCC(N)=O)C(=O)N[C@@H](CC(C)C)C(=O)N1)C(=O)N[C@H](C)C(N)=O (single isomer, unassigned) = −4%
2) CC(=O)N[C@@H](CCC(=O)O)C(=O)N[C@H](C(=O)N[C@@H](Cc1ccccc1)C(=O)N[C@]1(C)CCCCCCC=CCCC[C@@](C)(C(=O)N[C@@H](C)C(=O)N[C@@H](C)C(=O)N[C@@H](C)C(=O)N[C@@H](C)C(=O)N[C@@H](C)C(=O)N[C@H](C)C(N)=O)NC(=O)[C@H](CC(C)C)NC(=O)[C@H](CCC(N)=O)NC(=O)[C@H](C)NC(=O)[C@H](Cc2c[nH]c3ccccc23)NC(=O)[C@H](Cc2ccc(O)cc2)NC(=O)[C@H](CCC(=O)O)NC1=O)[C@@H](C)O (single isomer, unassigned) [compound 340] = 0%

* * *

- System: Caspase 3
- PROTOCOL NOTES: Caspase 3 detection assay in SJSA1 cells
- Type: cell-based
- CONDITION CONTEXT: 0.3 μM, SJSA1, 48 h, Caspase 3 activation over DMSO-treated cells
Bridge positions count the residues as written; N and C are the ends. Square brackets hold non-standard residues; d marks the D form. Peptide text beside a SMILES is read from it. R8 = C=CCCCCCC[C@@](C)(N)C(=O)O; hLeu = CC(C)CC[C@H](N)C(=O)O; S5 = C=CCCC[C@](C)(N)C(=O)O
PROPERTY LABEL: caspase 0.3 μM

1) CC(=O)N[C@@H](CC(C)C)C(=O)N[C@H](C(=O)N[C@@H](Cc1ccccc1)C(=O)N[C@]1(C)CCCCCCC=CCCC[C@@](C)(C(=O)N[C@@H](CO)C(=O)N[C@@H](C)C(=O)N[C@@H](CO)C(N)=O)NC(=O)[C@H](CC(C)C)NC(=O)[C@H](CCC(N)=O)NC(=O)[C@H](C)NC(=O)[C@H](Cc2c[nH]c3ccccc23)NC(=O)[C@H](Cc2ccc(O)cc2)NC(=O)[C@H](C(C)C)NC1=O)[C@@H](C)O (single isomer, unassigned) [compound 144] = 1
2) CC(=O)N[C@@H](CC(C)C)C(=O)N[C@H](C(=O)N[C@@H](Cc1ccccc1)C(=O)N[C@]1(C)CCCCCC/C=C\CCC[C@@](C)(C(=O)N[C@@H](CO)C(=O)N[C@@H](C)C(=O)N[C@@H](C)C(N)=O)NC(=O)[C@H](CCC(C)C)NC(=O)[C@H](CCC(N)=O)NC(=O)[C@H](C)NC(=O)[C@H](Cc2c[nH]c3ccccc23)NC(=O)[C@H](Cc2ccc(O)cc2)NC(=O)[C@H](C)NC1=O)[C@@H](C)O [compound 114] (Ac-LTF[R8]AYWAQ[hLeu][S5]SAA-NH2; staple (Z) 4-11) = 1
